- Test system: PHF6
- ASSAY_COMMENT: 3' UTR reporter interaction score (median-centred robust z-score of log2 firefly/Renilla activity); higher = less repression of the 3' UTR reporter
- STUDY_CONDITIONS: HEK293T; 48 h
Use 3' UTR reporter interaction score to assign classes; range list: bucket A = under -0.3, bucket B = from -0.3 up to 0.7, bucket C = 0.7 and over

Sample answers from the record:
{"MACROMOLECULE_SEQUENCE": "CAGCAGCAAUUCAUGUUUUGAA", "CLASS_ASSIGNMENT": "bucket C"}
{"MACROMOLECULE_SEQUENCE": "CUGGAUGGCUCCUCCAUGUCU", "CLASS_ASSIGNMENT": "bucket C"}
{"MACROMOLECULE_SEQUENCE": "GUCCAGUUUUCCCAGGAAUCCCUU", "CLASS_ASSIGNMENT": "bucket C"}
{"MACROMOLECULE_SEQUENCE": "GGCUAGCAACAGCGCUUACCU", "CLASS_ASSIGNMENT": "bucket A"}
{"MACROMOLECULE_SEQUENCE": "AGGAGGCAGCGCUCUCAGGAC", "CLASS_ASSIGNMENT": "bucket C"}
{"MACROMOLECULE_SEQUENCE": "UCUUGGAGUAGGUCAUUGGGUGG", "CLASS_ASSIGNMENT": "bucket C"}
{"MACROMOLECULE_SEQUENCE": "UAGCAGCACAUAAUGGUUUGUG", "CLASS_ASSIGNMENT": "bucket C"}
{"MACROMOLECULE_SEQUENCE": "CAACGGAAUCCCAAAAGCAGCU", "CLASS_ASSIGNMENT": "bucket B"}
{"MACROMOLECULE_SEQUENCE": "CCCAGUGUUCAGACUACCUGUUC", "CLASS_ASSIGNMENT": "bucket B"}
{"MACROMOLECULE_SEQUENCE": "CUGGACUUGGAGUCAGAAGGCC", "CLASS_ASSIGNMENT": "bucket B"}

INPUT: Input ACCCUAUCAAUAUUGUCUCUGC ; output its category
OUTPUT: bucket C

INPUT: Input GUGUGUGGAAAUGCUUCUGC ; output its category
OUTPUT: bucket C
